- targetUnderTest: T1, ZFP SBS#1471 (synthetic)
- T1 chain: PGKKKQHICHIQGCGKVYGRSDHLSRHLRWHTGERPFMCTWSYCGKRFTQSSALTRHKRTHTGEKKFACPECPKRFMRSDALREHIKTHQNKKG
- testName: EMSA
- conditionInfo: tags: MBP fusion
resultType: Kd (nM)
Reply with just the number (in nM).

Exam item: Can you look up the measured Kd of CTGGTTGGG (dsDNA) DNA 1: CTGGTTGGG DNA 2: CCCAACCAG for me?
Marked response: 0.09

Values were extracted from patent US20030068675.
